IC50 reference
Test target: LMWPTP (Homo sapiens, UniProt P24666)
Sequence (P24666 1-158): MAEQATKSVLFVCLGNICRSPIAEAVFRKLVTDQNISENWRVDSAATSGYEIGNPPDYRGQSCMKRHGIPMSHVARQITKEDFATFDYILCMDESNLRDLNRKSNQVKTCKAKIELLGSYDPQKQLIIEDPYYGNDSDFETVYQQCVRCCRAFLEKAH
Method: PTP inhibition assay (pNPP)
Type: biochemical
Condition summary: […]; LMWPTP
Write the answer as a number in µM, unit excluded.

Reference set (3 entries):
O=C(NNc1ccccc1[N+](=O)[O-])C(c1ccc(-c2ccccc2)cc1)S(=O)(=O)O (centres unmarked) [Compound L319-16-N55]
90
O=C(Nc1ccc(Br)c2ccccc12)C(c1ccc(-c2ccccc2)cc1)S(=O)(=O)O (centres unmarked) [Compound L319-16-M47]
37
O=C(Nc1ccc(N2CCOCC2)cc1)C(c1ccc(Br)cc1)S(=O)(=O)O (centres unmarked) [Compound L319-12-M68]
21

Please look at the following compound next.
Entry O=C(Nc1nc2cc(Cl)ccc2o1)C(c1ccc(-c2ccccc2)cc1)S(=O)(=O)O (centres unmarked) [Compound L319-16-M60] needs its IC50 filled in; supply it.
18
